Tested on: Junín pseudotyped virus
Experiment: organism not typed
Assay type: cell-based
Settings: read-out: Activity (EC50 in μM vs. pseudotyped virus) Junín
PARAMETER: EC50

Prompt: Please list EC50 recorded for the compound `CCOc1ccc(-n2cnc3cc(NCc4ccc(CC)cc4)cnc32)cc1`
Response: < 0.05 µM

---

Consider the following compounds and their measured EC50 readings.
System: Sabiá pseudotyped virus
Test: organism not typed
Format: cell-based
Details: read-out: Activity (EC50 in μM vs. pseudotyped virus) Sabiá

Guide cases for EC50, answers given:
GIVEN SMILES | TARGET OF ASSAY | EC50
CCOc1ccc(-n2nnc3cc(NCc4ccc(CC)cc4)cnc32)cc1 | Sabiá pseudotyped virus | 0.05 to 1 µM
CCOc1ccc(-n2cnc3nc(NCc4ccc(CC)cc4)ccc32)cc1 | Sabiá pseudotyped virus | 0.05 to 1 µM

// next entry
Prompt: Give measured EC50 for `CCOc1ccc(-n2cnc3cc(NCc4ccc(CC)cc4)cnc32)cc1` (Sabiá pseudotyped virus).
Response: < 0.05 µM

Where do the numbers come from? From patent US9096597B2.
